molecular target: human PDE5 (Homo sapiens, UniProt O76074); construct: from tissue; host or cells: human platelets from fresh donor blood (platelet lysate); test: Inhibition of PDE5 activity (platelet lysate, SPA assay); type: biochemical; conditions: 0.5 μM cGMP, read-out: PDE5 Inhibitory values measured as -logIC50 (converted)
value.type: IC50

INSERT INTO results (smiles_record, value_type, test_result) VALUES
  ('COc1cc(OCC2CC2)c(-c2ncnc3c(C(=O)N[C@H](Cc4ccccc4)C(=O)N4CCC(N5N=C(c6ccc(OC)c(OC)c6)[C@H]6CCCC[C@H]6C5=O)CC4)c[nH]c23)cc1F', 'IC50', '1 to 10 nM'),
  ('COc1cc(OCC2CC2)c(-c2ncnc3c(C(=O)N[C@@H](C(=O)N4CCC(N5N=C(c6ccc(OC)c(OC)c6)[C@H]6CCCC[C@H]6C5=O)CC4)[C@H](C)c4ccccc4)c(C)[nH]c23)cc1F', 'IC50', '1 to 10 nM'),
  ('COc1ccc(C2=NN(C3CCN(C(=O)[C@@H](Cc4ccc(F)cc4)NC(=O)c4c[nH]c5c(-c6c(OCC7CC7)ccc7c6OCO7)ncnc45)CC3)C(=O)[C@@H]3CCCC[C@H]23)cc1OC', 'IC50', '< 1 nM'),
  ('COc1ccc(C2=NN(C3CCN(C(=O)[C@H](CCC(=O)N4CCCCC4)NC(=O)c4c[nH]c5c(-c6c(OCC7CC7)ccc7c6OCO7)ncnc45)CC3)C(=O)[C@@H]3CCCC[C@H]23)cc1OC', 'IC50', '1 to 10 nM');

Reported IC50, compound `COc1ccc(C2=NN(C3CCN(C(=O)[C@@H](CCc4ccccc4)NC(=O)c4c[nH]c5c(-c6c(OCC7CC7)ccc7c6OCO7)ncnc45)CC3)C(=O)[C@@H]3CCCC[C@H]23)cc1OC` : ____
< 1 nM

Reported IC50, compound `COc1ccc(C2=NN(C3CCN(C(=O)[C@@H](Cc4ccccc4)NC(=O)c4c[nH]c5c(-c6c(OCC7CC7)ccc7c6OCO7)ncnc45)CC3)C(=O)C(C)(C)C2)cc1OC` : ____
1 to 10 nM

Reported IC50, compound `COc1ccc(C2=NN(C3CCN(C(=O)[C@H](Cc4cscn4)NC(=O)c4c(C)[nH]c5c(-c6c(OCC7CC7)ccc7c6OCO7)ncnc45)CC3)C(=O)[C@@H]3CCCC[C@H]23)cc1OC` : ____
< 1 nM

Reported IC50, compound `COc1ccc(C2=NN(C3CCN(C(=O)[C@@H](Cc4c[nH]c5ccccc45)NC(=O)c4c[nH]c5c(-c6c(OCC7CC7)ccc7c6OCO7)ncnc45)CC3)C(=O)[C@@H]3CCCC[C@H]23)cc1OC` : ____
< 1 nM

Reported IC50, compound `COc1ccc(C2=NN(C3CCN(C(=O)[C@H](Cn4cccn4)NC(=O)c4c[nH]c5c(-c6c(OCC7CC7)ccc7c6OCO7)ncnc45)CC3)C(=O)[C@@H]3CCCC[C@H]23)cc1OC` : ____
1 to 10 nM

Reported IC50, compound `COc1ccc(C2=NN(C3CCN(C(=O)[C@H](Cc4ccccc4)NC(=O)c4c[nH]c5c(-c6c(OCC7CC7)ccc7c6OCO7)ncnc45)CC3)C(=O)[C@H]3CCCC[C@@H]23)cc1OC` : ____
1 to 10 nM
